Test system: Mycobacterium tuberculosis
Assay Notes: Antimycobacterial activity against multi drug-resistant Mycobacterium tuberculosis 9449/2007 assessed as minimal inhibitory concentration required for complete inhibition of mycobacterial growth incubated for 21 days
Assay type: functional
Experimental Setup: 9449/2007, 504 h, time 21 day
Measured MIC accompanies every entry in the list below.
Give the number first and the unit second.

>  <Structure As Smiles>
C/C(=N\NC(=O)c1ccncc1)C(=O)Nc1ccc(F)cc1

>  <MIC>
32 µM

$$$$
>  <Structure As Smiles>
C/C(=N\NC(=O)c1ccncc1)C(=O)Nc1ccc(OC(F)(F)F)cc1

>  <MIC>
64 µM

$$$$
>  <Structure As Smiles>
C/C(=N\NC(=O)c1ccncc1)C(=O)Nc1cccc(Cl)c1

>  <MIC>
64 µM

$$$$
>  <Structure As Smiles>
C/C(=N\NC(=O)c1ccncc1)C(=O)Nc1ccc(Cl)c(Cl)c1

>  <MIC>
32 µM

$$$$

GET /values?readout=MIC&item= C/C(=N\NC(=O)c1ccncc1)C(=O)Nc1ccc(Cl)cc1
64 µM

GET /values?readout=MIC&item= C/C(=N\NC(=O)c1ccncc1)C(=O)Nc1ccc(I)cc1
16 µM

GET /values?readout=MIC&item= C/C(=N\NC(=O)c1ccncc1)C(=O)Nc1ccc(C(F)(F)F)cc1
32 µM

GET /values?readout=MIC&item= C/C(=N\NC(=O)c1ccncc1)C(=O)Nc1ccc(Br)cc1
64 µM
